All figures here come from patent US20260053794A1.

Target: UniProt P30874
Sequence (P30874 whole entry, species assumed): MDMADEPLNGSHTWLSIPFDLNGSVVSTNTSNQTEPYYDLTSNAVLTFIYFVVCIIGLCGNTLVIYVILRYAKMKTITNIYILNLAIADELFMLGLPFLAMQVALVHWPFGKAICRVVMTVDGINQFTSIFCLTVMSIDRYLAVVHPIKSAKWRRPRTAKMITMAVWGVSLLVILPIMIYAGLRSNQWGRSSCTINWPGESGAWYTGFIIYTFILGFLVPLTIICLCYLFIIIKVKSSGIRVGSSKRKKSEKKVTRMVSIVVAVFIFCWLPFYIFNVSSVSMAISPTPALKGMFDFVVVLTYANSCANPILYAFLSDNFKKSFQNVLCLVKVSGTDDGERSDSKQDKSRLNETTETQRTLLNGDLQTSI
Test: Biochemical Assay for Activation of Somatostatin Receptor 2 (SSTR2), Cisbio HTRF cAMP assay
Details: average pEC50; HTRF cAMP assay in stably-transfected cell line expressing SSTR2; cells incubated with compounds for 1-2h
Description: Biochemical Assay for Activation of Somatostatin Receptor 2 (SSTR2) Agonistic activation of SSTRs leads to an […] production of intracellular cAMP levels. Cisbio's homogeneous time-resolved fluorescence (HTRF) cAMP assay was used to measure cAMP concentration in an high-throughput format. Increase in intracellular cAMP concentrations was measuring using a stably-transfected cell line expressing SSTR2. […] The average pEC50 was determined for the test compounds.
Readout Name: EC50 (nM)

[P] CO[C@@H]1CN(c2c(-c3cc(F)cc(F)c3)cnc3[nH]c(-c4cccc(C#N)c4O)nc23)CC[C@H]1N [Compound 48]
[Q] C=COc1c(C#N)cccc1-c1ccc2ncc(-c3cc(F)cc(F)c3)c(N3CC[C@H](N)[C@@H](O)C3)c2c1 [Compound 153]
Q) Which value of EC50 is smaller, the one for P or the one for Q ? Pick one and reply with its label.
A) Q
